MEASUREMENT_TARGET: recombinant human ICAM1 (human, UniProt P05362 28-480, limits assumed)
Sequence (P05362 28-480 limits assumed): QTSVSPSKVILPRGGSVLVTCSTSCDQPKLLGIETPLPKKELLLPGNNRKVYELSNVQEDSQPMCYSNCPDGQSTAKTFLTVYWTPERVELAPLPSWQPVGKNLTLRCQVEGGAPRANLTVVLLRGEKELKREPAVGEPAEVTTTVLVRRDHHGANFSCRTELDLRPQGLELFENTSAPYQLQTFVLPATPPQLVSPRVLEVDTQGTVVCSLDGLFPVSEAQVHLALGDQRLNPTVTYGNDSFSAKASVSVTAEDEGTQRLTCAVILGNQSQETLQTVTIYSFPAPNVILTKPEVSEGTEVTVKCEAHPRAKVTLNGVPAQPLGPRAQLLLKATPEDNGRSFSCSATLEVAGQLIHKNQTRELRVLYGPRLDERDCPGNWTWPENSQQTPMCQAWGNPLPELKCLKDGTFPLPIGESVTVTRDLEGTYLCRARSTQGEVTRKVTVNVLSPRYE
PROTOCOL_SUMMARY: SPR (Biacore 8K), antibody captured, antigen injected
A collection of binders and their measured koff
Just the number in s⁻¹, nothing appended.

For orientation, consider the following solved cases.
{"BINDER": "14H1 (antibody, human IgG1, kappa, V domains shown, Rabbit-human chimeric anti-ICAM1: rabbit VH and VL on human IgG1 and kappa constant regions) VH: QSVEESGGRLVTPGTPLTLTCTVSGFSLSNYYMSWVRQAPGKGLEWIGIISDSGSTYYASWAKGRFTISKTSTTVDLSITSPTTEDTATYFCARDWSYDSTSGYYYYDMDLWGPGTLVTVSA VL: AYDMTQTPASVEVAVGGTVTIKCQASQSINSWLSWFHQKPGQPPKRLIYKASTLASGVSSRFKGSGSGTQFTLTISGVESADAATYYCQQGYSRSDGEHVFGGGTEVVVKR", "MEASURE_NAME": "koff", "UNIT_OF_MEASURE": "s⁻¹", "ASSAY_RESULT": 0.000237}
{"BINDER": "5B12 (antibody, human IgG1, kappa, V domains shown, Rabbit-human chimeric anti-ICAM1: rabbit VH and VL on human IgG1 and kappa constant regions) VH: QSLEESGGRLVTPGTPLTLTCTVSGFSLSSYGMSWVRQAPGKGLEYIGWISFSGSAYYANWAKGRFTISKTSTTVDLKITSPTTEDTATYFCARGGDYGGSTYILNLWGPGTLVTVSS VL: AFELTQTPSSVEAAVGGTVTIKCQASESIDSYLSWYQQKPGQPPKLLIYAASTLASGVSSRFKGSGSGTEFTLTISDLESADAATYYCQSYSGTITTSGGAFGGGTEVVVKR", "MEASURE_NAME": "koff", "UNIT_OF_MEASURE": "s⁻¹", "ASSAY_RESULT": 0.000584}

Dear colleague, I am looking for the recorded koff of the following binder: 10B8 (antibody, human IgG1, kappa, V domains shown, Rabbit-human chimeric anti-ICAM1: rabbit VH and VL on human IgG1 and kappa constant regions) VH: QSLEESGGRLVTPGGSLTLTCTVSGFSLSSYGMSWVRQAPGKGLEYIGWISFSGSAYYANWAKGRFTISKTSTTVDLKITSPTTEDTATYFCARGGDYGGSTYILNLWGPGTLVTVSS VL: AFELTQTPSSVEAAVGGTVTIKCQASESINSYLSWYQQKPGQPPKLLIYAASTLASGVSSRFKGSGSGTEFTLTISDLESADAATYYCQSYSGTISTSGGAFGGGTEVVVKR
0.000682

Data request, read-out koff, for 8E5 (antibody, human IgG1, kappa, V domains shown, Rabbit-human chimeric anti-ICAM1: rabbit VH and VL on human IgG1 and kappa constant regions) VH: QSLEESGGRLVTPGTPLTLTCTVSGFSLSNYAMNWVRQAPGKGLEWIGYISTRGSAYYASWAKGRFTISKTSTTVDLKMTSPTTEDTATYFCARGDLVGGGYIRGSFDPWGPGTLVTVSS VL: AQVLTQTPSPVSAAVGGTVTINCQSSQSVVSDKLLSWFQQKPGQPPKLLIYGASTLASGVPSRFKGSGSGTQFTLTISDVQSDDAATYYCAGAYSTDSDIRAFGGGTEVVVKR
0.00361
